target: Torsin-1A (Homo sapiens) (UniProt O14656); assay: small-molecule binders of mutant TOR1A in lysate, primary screen, cell lysate, small-molecule microarray, COS7 lysate, 635/667 nm fluorescence (AID 1150); details: COS7 hTOR1A mutant lysate, 635 nm fluorescence, higher = more signal;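 also: score pools 667 nm emission and signal to noise measuring lysate protein binding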
Sequence (O14656 whole entry, looked up): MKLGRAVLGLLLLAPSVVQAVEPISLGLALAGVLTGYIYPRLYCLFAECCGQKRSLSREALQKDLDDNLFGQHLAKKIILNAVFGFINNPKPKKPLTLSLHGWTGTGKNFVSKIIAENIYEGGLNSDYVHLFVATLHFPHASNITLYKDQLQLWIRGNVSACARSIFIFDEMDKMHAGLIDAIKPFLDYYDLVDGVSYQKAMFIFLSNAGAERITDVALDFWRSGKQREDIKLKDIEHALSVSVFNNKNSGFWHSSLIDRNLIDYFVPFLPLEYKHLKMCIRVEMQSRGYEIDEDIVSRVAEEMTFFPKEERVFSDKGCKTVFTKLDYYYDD
QUANTITY_NAME: composite z-score

input: Field request: composite z-score | item: `CCCCc1nc2c(c3c1C[C@H](C)OC3)CN(CCC(C)C)CC2`
output: 0.622

input: Moving on to `CC(C)CON=C1C[C@@H](O)[C@@H](O)[C@@H]2[C@@H]3C(=O)N(Cc4ccccc4)C(=O)[C@@H]3CC[C@@H]12`
output: 0.16

input: Moving on to `CC(CCC(=O)OC[C@H]1O[C@H](C#Cc2ccccc2)C=C[C@@H]1Oc1ccc(C)cc1)=NO[C@@H](C)c1cn([C@H](CO)Cc2ccccc2)nn1`
output: -0.146

input: Moving on to CCc1cc2c(nc1CC)CCN(CCC(C)=NOC(C)CN1CCCc3nc(C)c(C)cc31)C2 (centres undefined)
output: 0.748

Data provenance is PubChem BioAssay.
